Entries annotated with measured log10 of IC50
target_or_test_system: Polyunsaturated fatty acid 5-lipoxygenase (Homo sapiens, UniProt P09917)
experiment_summary: Inhibition of LT biosynthesis in vitro using A-23187-stimulated human whole blood.
Format: functional, tissue-based
Units before log transform: nM; reported quantity: IC50; transform: log10.

Problem: Give recorded log10 of IC50 with Polyunsaturated fatty acid 5-lipoxygenase (Homo sapiens, UniProt P09917) for the following compound: CN(c1ccc(Sc2cc(C3(C)COC(C)(C)O3)cs2)cc1)S(C)(=O)=O (stereo not given)
Result: 2.20

Problem: Same for CC(=O)N(C)c1ccc(S(=O)(=O)c2cc(C3(C)COC(C)(C)O3)cs2)cc1 (stereo not given)
Result: 2.92

Problem: Same for COC1(c2cc(Sc3ccc(N(C)C(C)=O)cc3)cc(F)c2C)CCOCC1
Result: 1.48

Problem: Same for C/C(=N\OCCN1CCOCC1)c1ccc(Sc2cc([C@@]3(C)COC(C)(C)O3)cs2)cc1
Result: 3.18

Problem: Same for COC1(c2cc(Sc3ccc4c(c3)OCC(=O)N4C)cc(F)c2C)CCOCC1
Result: 1.60

Problem: Same for C/C(=N\O)c1ccc(S(=O)(=O)c2ncc([C@@]3(C)COC(C)(C)O3)s2)cc1
Result: 2.30

Problem: Same for CC(=O)N(C)c1ccc(Sc2cc(C3(C)COC(C)(C)O3)cs2)cc1 (stereo not given)
Result: 2.18

Problem: Same for C/C(=N\OCC#N)c1ccc(S(=O)(=O)c2cc([C@@]3(C)COC(C)(C)O3)cs2)cc1
Result: 1.70

Next:
Problem: Give recorded log10 of IC50 with Polyunsaturated fatty acid 5-lipoxygenase (Homo sapiens, UniProt P09917) for the following compound: CC(=O)N(C)c1ccc(Sc2cc([C@@]3(C)COC(C)(C)O3)cs2)cc1
Result: 1.60

Problem: Same for C/C(=N\OCC#N)c1ccc(Sc2ncc([C@@]3(C)COC(C)(C)O3)s2)cc1
Result: 1.48

* * *

target_or_test_system: Polyunsaturated fatty acid 5-lipoxygenase (Homo sapiens, UniProt P09917)
Sequence (P09917 whole entry): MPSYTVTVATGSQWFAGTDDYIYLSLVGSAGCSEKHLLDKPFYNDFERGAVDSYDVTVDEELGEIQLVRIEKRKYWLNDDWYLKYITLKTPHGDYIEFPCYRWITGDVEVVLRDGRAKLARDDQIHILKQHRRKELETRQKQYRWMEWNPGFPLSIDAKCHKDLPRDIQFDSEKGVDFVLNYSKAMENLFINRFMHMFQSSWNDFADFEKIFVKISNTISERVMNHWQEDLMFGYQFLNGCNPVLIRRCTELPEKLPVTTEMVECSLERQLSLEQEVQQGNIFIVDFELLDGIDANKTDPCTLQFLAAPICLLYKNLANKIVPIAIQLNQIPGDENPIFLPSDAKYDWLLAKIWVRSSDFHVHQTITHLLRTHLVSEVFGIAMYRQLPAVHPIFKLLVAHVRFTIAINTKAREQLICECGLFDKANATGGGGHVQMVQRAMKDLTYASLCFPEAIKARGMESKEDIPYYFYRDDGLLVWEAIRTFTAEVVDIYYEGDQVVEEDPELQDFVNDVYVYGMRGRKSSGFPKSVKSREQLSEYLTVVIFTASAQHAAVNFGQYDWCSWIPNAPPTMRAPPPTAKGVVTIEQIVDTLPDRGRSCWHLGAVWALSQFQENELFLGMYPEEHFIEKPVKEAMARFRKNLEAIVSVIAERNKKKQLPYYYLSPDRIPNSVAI
experiment_summary: Inhibition of LT biosynthesis in vitro using A-23187-stimulated human whole blood.
Entries annotated with measured IC50
A number alone suffices; assume nM.

Here is how some molecules turned out for IC50.
Problem: Which IC50 value is on record for CC(=O)c1ccc(Sc2cc(C3(C)COC(C)(C)O3)cs2)cc1 (stereo unspecified) ?
Result: 600

Problem: Same for COC1(c2cc(Sc3ccc(/C(C)=N/O)cc3)cc(F)c2C)CCOCC1
Result: 20

Next:
Problem: Which IC50 value is on record for C/C(=N\OCC#N)c1ccc(Sc2cc([C@@]3(C)COC(C)(C)O3)cs2)cc1 ?
Result: 10

Problem: Same for COC1(c2cc(Sc3ccc4c(c3)CCC(=O)N4C)cc(F)c2C)CCOCC1
Result: 60

Problem: Same for COC1(c2cc(Sc3ccc4c(c3)CCC(=O)N4C)sc2C)CCOCC1
Result: 20

Problem: Same for CC1(C)OCC(C)(c2cccc(OCc3ccc4ccccc4c3)c2)O1 (stereo unspecified)
Result: 350

* * *

Entries annotated with measured pIC50
target_or_test_system: Polyunsaturated fatty acid 5-lipoxygenase (Homo sapiens)
experiment_summary: Inhibition of LT biosynthesis in vitro using A-23187-stimulated human whole blood.
The value called pIC50 is obtained by taking minus log10 of the concentration in mol/L.

Here is how some molecules turned out for pIC50.
Problem: Give recorded pIC50 with Polyunsaturated fatty acid 5-lipoxygenase (Homo sapiens) for the following molecule: C/C(=N\O)c1ccc(Sc2cc([C@@]3(C)COC(C)(C)O3)cs2)cc1
Result: 7.40

Problem: Same for COC1(c2cc(OCc3ccc4c(ccc(=O)n4C)c3)cc(F)c2C)CCOCC1
Result: 7.70

Problem: Same for C/C(=N\O)c1ccc(Sc2ncc([C@@]3(C)COC(C)(C)O3)s2)cc1
Result: 6.89

Problem: Same for CO/N=C(\C)c1ccc(Sc2cc(C3(C)COC(C)(C)O3)cs2)cc1 (stereo not given)
Result: 6.57

Problem: Same for C/C(=N\O)c1ccc(Sc2cc(C3(C)COC(C)(C)O3)cs2)cc1 (stereo not given)
Result: 7.40

Problem: Same for C/C(=N\O)c1ccc(S(=O)(=O)c2cc([C@@]3(C)COC(C)(C)O3)cs2)cc1
Result: 7.05

Problem: Same for COC1(c2sc(Sc3ccc4c(c3)CCC(=O)N4C)nc2C)CCOCC1
Result: 6.85

Problem: Same for CC(=O)c1ccc(Sc2ncc([C@@]3(C)COC(C)(C)O3)s2)cc1
Result: 6.41

Next:
Problem: Give recorded pIC50 with Polyunsaturated fatty acid 5-lipoxygenase (Homo sapiens) for the following molecule: CC(=O)N(C)c1ccc(Sc2ncc([C@]3(C)COC(C)(C)O3)s2)cc1
Result: 5.21

Problem: Same for CC(=O)N(C)c1ccc(Sc2cc([C@]3(C)COC(C)(C)O3)cs2)cc1
Result: 5.93

* * *

target_or_test_system: UniProt:P09917
experiment_summary: Inhibition of LT biosynthesis in vitro using A-23187-stimulated human whole blood.
Type: functional, tissue-based
Entries annotated with measured IC50
Quote the value and follow it with the unit of measurement.

Here is how some molecules turned out for IC50.
Problem: Which IC50 value is on record for CN1C(=O)CCc2ccc(Sc3cc(C4(C)COC(C)(C)O4)cs3)cc21 (stereo not given) ?
Result: 100 nM

Problem: Same for COC1(c2cc(S(=O)(=O)c3ccc4c(ccc(=O)n4C)c3)ccc2C)CCOCC1
Result: 40 nM

Problem: Same for CN1C(=O)COc2ccc(Sc3cc(C4(C)COC(C)(C)O4)cs3)cc21 (stereo not given)
Result: 40 nM

Next:
Problem: Which IC50 value is on record for C/C(=N\OCC#N)c1ccc(S(=O)(=O)c2ncc([C@@]3(C)COC(C)(C)O3)s2)cc1 ?
Result: 120 nM

Problem: Same for CN(C)S(=O)(=O)c1ccc(Sc2cc(C3(C)COC(C)(C)O3)cs2)cc1 (stereo not given)
Result: 210 nM
